# assay-target: Cyclin-dependent kinase 1 (Saccharomyces cerevisiae S288c)
# Sequence (P00546 whole entry): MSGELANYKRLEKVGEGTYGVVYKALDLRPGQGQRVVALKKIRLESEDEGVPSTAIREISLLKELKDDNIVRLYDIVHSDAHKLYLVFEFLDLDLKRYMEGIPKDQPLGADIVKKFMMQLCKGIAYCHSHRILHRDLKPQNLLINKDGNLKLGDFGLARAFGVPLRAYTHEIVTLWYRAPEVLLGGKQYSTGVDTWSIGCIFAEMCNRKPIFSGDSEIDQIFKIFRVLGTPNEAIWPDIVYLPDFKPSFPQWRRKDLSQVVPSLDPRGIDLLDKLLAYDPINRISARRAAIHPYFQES
# protocol-details: Inhibition of hemagglutininin-tagged Saccharomyces cerevisiae MNY629 Cdc28/Clb2
attribute-measured: pIC50
Field pIC50 (float): negative decimal logarithm of the concentration in molar.

Answer with reported pIC50 of CCCCc1c(-c2ccc(O)cc2)[nH]c2nccnc12 [ALOISINE A]
5.60

====

# assay-target: Cyclin-dependent kinase 5/CDK5 activator 1 (Homo sapiens)
# Sequence (Q00535 whole entry, the tested form may be a part): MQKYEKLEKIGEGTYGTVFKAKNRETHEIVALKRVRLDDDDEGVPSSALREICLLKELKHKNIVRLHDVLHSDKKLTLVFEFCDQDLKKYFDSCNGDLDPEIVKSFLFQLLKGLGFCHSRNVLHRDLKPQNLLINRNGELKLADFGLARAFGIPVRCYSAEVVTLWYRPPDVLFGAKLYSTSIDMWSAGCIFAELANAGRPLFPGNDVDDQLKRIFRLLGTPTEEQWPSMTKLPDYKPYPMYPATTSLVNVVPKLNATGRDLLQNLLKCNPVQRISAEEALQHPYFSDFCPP
# Sequence (Q15078 whole entry, further chain, the tested form may be a part): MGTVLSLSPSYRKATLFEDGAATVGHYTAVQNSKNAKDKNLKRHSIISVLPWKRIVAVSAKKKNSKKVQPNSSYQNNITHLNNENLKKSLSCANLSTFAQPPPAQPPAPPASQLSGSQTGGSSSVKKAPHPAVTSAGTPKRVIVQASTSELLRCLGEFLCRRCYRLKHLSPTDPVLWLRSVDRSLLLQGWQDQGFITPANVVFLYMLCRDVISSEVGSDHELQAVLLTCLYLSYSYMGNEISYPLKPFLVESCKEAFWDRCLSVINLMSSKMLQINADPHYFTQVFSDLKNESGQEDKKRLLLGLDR
# protocol-details: Inhibition of GST-fused recombinant CDK5/p25 expressed in Escherichia coli after 30 mins by scintillation counting
Form field: IC50 (one value per entry).
Write it as a number; the unit µM goes unstated.

Examples with their reported IC50 follow.
{"smiles-str": "CCCCc1c(-c2ccc(OCCOCCOCCN)cc2)n(C)c2nccnc12", "IC50 (µM)": 50}
{"smiles-str": "CCCCc1c(-c2ccc(OCCOCCOCCN)cc2)[nH]c2nccnc12", "IC50 (µM)": 0.66}

Please examine the following record next.
Answer with reported IC50 of `CCCCc1c(-c2ccc(O)cc2)n(C)c2nccnc12`
160
